systemUnderTest: PI3KC2α Δ1-298 (Homo sapiens (Human), UniProt O00443)
Sequence (O00443 299-1686): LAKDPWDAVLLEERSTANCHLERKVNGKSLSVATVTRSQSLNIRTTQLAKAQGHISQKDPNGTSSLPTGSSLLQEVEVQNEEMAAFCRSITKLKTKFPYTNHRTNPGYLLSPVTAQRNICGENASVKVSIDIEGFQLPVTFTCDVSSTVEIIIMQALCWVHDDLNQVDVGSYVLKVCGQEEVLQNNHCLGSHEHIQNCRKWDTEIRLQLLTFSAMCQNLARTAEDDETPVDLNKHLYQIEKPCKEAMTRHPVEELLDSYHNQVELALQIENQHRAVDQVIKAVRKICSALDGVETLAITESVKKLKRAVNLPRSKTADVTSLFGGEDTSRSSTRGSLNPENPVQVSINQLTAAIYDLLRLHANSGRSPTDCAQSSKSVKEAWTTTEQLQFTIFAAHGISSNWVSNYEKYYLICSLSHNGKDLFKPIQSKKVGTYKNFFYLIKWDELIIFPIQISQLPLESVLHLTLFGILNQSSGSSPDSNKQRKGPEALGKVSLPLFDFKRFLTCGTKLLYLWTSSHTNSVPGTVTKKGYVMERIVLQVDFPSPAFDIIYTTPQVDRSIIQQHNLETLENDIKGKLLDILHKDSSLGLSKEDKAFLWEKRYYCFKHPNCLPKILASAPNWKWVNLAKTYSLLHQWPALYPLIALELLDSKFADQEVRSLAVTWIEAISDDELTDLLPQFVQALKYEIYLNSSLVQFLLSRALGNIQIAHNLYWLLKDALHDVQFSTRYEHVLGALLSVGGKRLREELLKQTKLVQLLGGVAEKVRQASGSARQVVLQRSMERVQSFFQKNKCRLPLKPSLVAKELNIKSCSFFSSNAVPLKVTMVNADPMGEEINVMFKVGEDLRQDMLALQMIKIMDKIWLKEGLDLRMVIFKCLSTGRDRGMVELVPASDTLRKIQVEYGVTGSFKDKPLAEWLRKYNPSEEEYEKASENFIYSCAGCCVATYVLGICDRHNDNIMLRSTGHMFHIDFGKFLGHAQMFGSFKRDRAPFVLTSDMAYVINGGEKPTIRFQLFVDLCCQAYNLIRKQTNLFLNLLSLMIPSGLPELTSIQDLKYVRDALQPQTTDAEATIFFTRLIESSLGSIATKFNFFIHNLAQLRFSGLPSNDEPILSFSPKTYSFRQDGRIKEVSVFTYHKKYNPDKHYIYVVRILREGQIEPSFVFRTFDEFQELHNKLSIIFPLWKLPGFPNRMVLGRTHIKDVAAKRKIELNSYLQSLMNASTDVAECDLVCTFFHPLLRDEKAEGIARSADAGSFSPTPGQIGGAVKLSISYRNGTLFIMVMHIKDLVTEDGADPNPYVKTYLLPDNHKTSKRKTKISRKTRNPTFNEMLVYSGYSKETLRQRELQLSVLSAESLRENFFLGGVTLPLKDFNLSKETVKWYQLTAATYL
test: ADP-Glo kinase assay with purified PI3KC2α Δ1-298
Format: biochemical
readoutKind: inhibition at 10 µM (%)

Examples with their reported inhibition at 10 µM follow.
INSERT INTO assay_data (mol, measvalue) VALUES
  ('CC(C)NC(=O)CSc1nc2nccnc2c(=O)n1CCc1ccccc1', 30),
  ('O=C(CCc1nc2nccnc2c(=O)n1CCc1ccccc1)NCc1ccccc1', 28);

I = O=C(CSc1nc2nccnc2c(=O)n1CCc1ccccc1)c1ccccc1F
II = O=C(CSc1nc2nccnc2c(=O)n1CCc1ccccc1)Nc1nc(-c2cccc([N+](=O)[O-])c2)cs1
[Q] # argmax over inhibition at 10 µM for candidates I and II Select an item and report its label.
[A] II
(II: 100%, I: 35%)
